Task for the reader: assign each of the following compounds its reported Duration.
Test system: Rattus norvegicus
Experiment: Time from onset of action until significant (i.e., >= 30%) inhibition of pressor response no longer observed (0.3 mg/kg intravenous route)
Type: functional
I only need the number, in h, no unit after it.

[ask] Duration lookup needed for `CCCCc1nnc(SCc2ccccc2C(=O)O)n1Cc1ccc(NC(=O)c2ccccc2C(=O)O)cc1` , thanks.
[reply] 0.9

[ask] Duration lookup needed for `CCCCc1nc(Cl)c(CO)n1Cc1ccc(-c2ccccc2-c2nnn[nH]2)cc1` , thanks.
[reply] 5.5

[ask] Duration lookup needed for `CCCCc1nnc(SCc2ccccc2C(=O)O)n1Cc1ccc(-c2ccccc2-c2nn[nH]n2)cc1` , thanks.
[reply] 5.5

----------
Task for the reader: assign each of the following compounds its reported pIC50.
Target: Type-1 angiotensin II receptor (Oryctolagus cuniculus)
Sequence (P34976 whole entry): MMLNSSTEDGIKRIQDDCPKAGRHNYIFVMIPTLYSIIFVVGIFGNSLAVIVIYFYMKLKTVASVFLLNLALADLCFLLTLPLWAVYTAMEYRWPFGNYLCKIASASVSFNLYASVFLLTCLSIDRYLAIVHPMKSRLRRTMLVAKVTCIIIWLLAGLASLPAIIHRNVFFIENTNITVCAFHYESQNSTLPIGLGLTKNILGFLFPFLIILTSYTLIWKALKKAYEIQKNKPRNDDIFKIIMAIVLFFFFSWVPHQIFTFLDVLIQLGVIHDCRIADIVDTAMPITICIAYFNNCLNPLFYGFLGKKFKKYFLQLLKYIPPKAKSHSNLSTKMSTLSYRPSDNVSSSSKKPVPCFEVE
Scale for pIC50: -log10 of concentration given in mol/L; no unit attached.

[ask] pIC50 lookup needed for `CCCCc1nnc(SCc2ccccc2[N+](=O)[O-])n1Cc1ccc(-c2ccccc2-c2nnn[nH]2)cc1` , thanks.
[reply] 6.89

[ask] pIC50 lookup needed for `CCCCc1nnc(NCc2ccc(OC)cc2)n1Cc1ccc(-c2ccccc2-c2nnn[nH]2)cc1` , thanks.
[reply] 6.11

[ask] pIC50 lookup needed for `CCCCc1nnc(SCc2ccccc2C(=O)O)n1Cc1ccc(NC(=O)c2ccccc2C(=O)O)cc1` , thanks.
[reply] 8.48

[ask] pIC50 lookup needed for `CCCCc1nnc(SCc2ccc(C)cc2)n1Cc1ccc(NC(=O)c2ccccc2C(=O)O)cc1` , thanks.
[reply] 8.12

[ask] pIC50 lookup needed for `CCCCc1nnc(SCc2ccccc2Cl)n1Cc1ccc(NC(=O)c2ccccc2C(=O)O)cc1` , thanks.
[reply] 7.52
